Data origin: patent US11865118B2

Let's go through some MIC measurements on E. coli ECO UFR39 together.

COMPOUND	TGT	MIC
CN(C)C(=O)[C@@H]1c2c(CCNC(=N)N)csc2C2CN1C(=O)N2OS(=O)(=O)O (stereo in doubt)	E. coli ECO UFR39	> 32 µg/mL
CC(C)(O/N=C(\C(=O)N[C@@H]1C(=O)N2C(C(=O)[O-])=C(C[n+]3ccccc3)CS[C@H]12)c1csc(N)n1)C(=O)O	E. coli ECO UFR39	> 256 µg/mL

Give the reported MIC for this compound. O=C(Nc1nc2c(s1)C1CN(C2)C(=O)N1OS(=O)(=O)[O-])OCc1ccccc1.[Na+] (centres unmarked)
> 32 µg/mL

Return the recorded MIC value; entry: CN(C)C(=O)[C@H]1c2nc(C(=O)NCCNC(=N)N)sc2[C@@H]2CN1C(=O)N2OS(=O)(=O)O (relative stereo)
> 32 µg/mL

Please report the measured MIC for CCOC(=O)[C@@H]1c2c(-c3ccc(F)cc3)csc2[C@@H]2CN1C(=O)N2OS(=O)(=O)[O-].[Na+]
> 32 µg/mL

###

Record set of MIC for target or system E. cloacae ECL P99.

Kindly indicate its recorded MIC. Item: CCOC(=O)[C@@H]1c2c(-c3ccc(F)cc3)csc2[C@@H]2CN1C(=O)N2OS(=O)(=O)[O-].[Na+] [Example 8]
> 32 mg/L

Provide one value: measured MIC of O=C(Nc1nc2c(s1)C1CN(C2)C(=O)N1OS(=O)(=O)[O-])OCc1ccccc1.[Na+] (stereo not drawn) [Example 5]
> 32 mg/L

Complete the entry with MIC for CN(C)C(=O)[C@H]1c2nc(C(=O)NCCNC(=N)N)sc2[C@@H]2CN1C(=O)N2OS(=O)(=O)O (relative stereo) [Example 9]
> 32 mg/L
